Biological target: complex I (NADH:quinone reductase) (Echinococcus multilocularis, UniProt A0A068Y553+A0A068Y9L9+Q9TE76)
Test: NADH:quinone reductase activity (complex I) in protoscoleces mitochondrial fraction
Details: E. multilocularis protoscoleces mitochondria; read-out: IC50 NADH:decyl rhodoquinone reductase (complex I)
Readings of IC50 for the listed compounds

>>> result("C/C(=C\\Cc1c(O)c(Cl)c(C)c(C=O)c1O)CC/C=C(\\C)[C@@H]1CC(=O)C(C)(C)O1")
"> 50 µM"
>>> result("CC(=O)c1c(C)c(Cl)c(O)c(C/C=C(\\C)CC/C=C(\\C)CCC=C(C)C)c1O")
"> 50 µM"
>>> result("CC(=O)c1cc(Cl)c(O)c(C/C=C(\\C)CCC=C(C)C)c1O")
"> 50 µM"
>>> result("CC(C)=CCC/C(C)=C/CC/C(C)=C/Cc1c(O)c(Cl)cc(C=O)c1O [Compound D1]")
"> 50 µM"
>>> result("CC(=O)c1cc(Cl)c(O)c(C/C=C(\\C)CC/C=C(\\C)CCC=C(C)C)c1O")
"> 50 µM"

Continue with the next compound.
Query: Indicate the recorded IC50 value for this compound: CC(C)=CCC/C(C)=C/CC/C(C)=C/Cc1c(O)c(Cl)c(C)c(C=O)c1O [Compound D2]
Result: > 50 µM
